testDetails: yeast display, Sf9 membrane polyspecificity reagent, FACS + sequencing; frameworks hold sequencing errors
readoutKind: polyreactivity (PSR sort gate)

Here's what some known entries look like.
QVQLVESGGGLVQAGGSLRLSCAASGFTFGANVMGWYRQAPGKERELVAAITSSGGSTYYADSVKGRFTISRDKAKNTVYLQMYSLKPEDTAVYYCNRRRGAYYGYYWGQGTQVTVSS | high polyreactivity
QVQLVESGGGLVQAGGSLRLSCAASGRTFPGNAMGWYRQAPGKERELVAAISSRGGSTYYADSVKGRFTISRDNAKYTVYFQMNSLKPEDTALYYCARRYLPYGGYYYWGQGTQVTVSS | high polyreactivity
QVQLVESGGGLVQAGGSLRLSCDASGSIFYSKAMGWYRQAHGKERELVAAITVGGGRTYYADSVKGRFTISRDNAKNTVYLQMNSLNPEDTAVYYCAADSHASTYDYWGQGTQVTVSS | low polyreactivity
QVQLVESGGGLVQAGGSLRLSCAASGSTFAYYVMGWYRQAPGKERELVAAISRGGRTYYADSVKGRFTISRDNAKNTVYLQMNSLKPEDTAVSYCAKPYHQRSAKVDYWGQGTQVTVSS | low polyreactivity
QVQLVESGGCLVQAGGSLRLSCAASGSTFRYYAMGWYRQAPGKESELVARITSRAGRTYYADSVKGRFTISRDIAKNTVYLQMNSLKPEDTAVYFCNTRDFSGYVHALSLYDYWGQGTQVTVSS | high polyreactivity
QVQLVESGGGLVQAGGSLRLSCAASGSIFIYYAMGWYRQPPGKERELVAAISYSDGDTYYADSVKGRFTISRDNAKNTVYLQMNSLKPEDTAVYYCAAEVTLSYDVGWEDYWGQGTQVTVSS | high polyreactivity
LVQLQESGGGLVQACGSLRLSCAASGDIFDADIMGWYRQAPGKERELVASITDGGSTNYADSVKGRFTISRDNAKNTVYLPMNSLKPEDTAVYYCAKPATYYELDYWGQGTQVTVSS | low polyreactivity
QVQLVESGGGLVQAGGSLRLSCAASGSTFAYNAMGWYRQAPGKERELVAVITWSDDRTYYADSVKGRFTISRDNAKNTVYLQMNSLKPEDTSVYYCAADRSGYWHYYTPYDYWGQGTQVTVSS | low polyreactivity
QVQHVESGGGLVQAGGSLRLSCAASGRTFVRYAMGWSRPAPGKERELVAAISRSGVGTYYADSVKGRFTISRDNAKKTVYLQMNSLKPEDTAVYYCNALPGTQYNYWGQGTQVTVSS | high polyreactivity
QVQLVESGGGLVQAGGSLRLSCAASGSILYYALGWYRQAPGKESELVATITRGGSTYYADSVKGRFTISRDNAKNTVYLQMNSLKPEDTAVYYCAARRAVRVGYYWHDISSYDYWGQGTQVTVSS | low polyreactivity

// switching to the query sequence
stdin: Look at this sequence and give its reported polyreactivity (PSR sort gate). `QVQLVESGGGLVQAGGSLRLSCAASGSTFIDYAMGWYRQAPGKERELVAAITNGGNTKYADSVKGRFTISRDNAKNTVYLLMISLNPEDTAVYYCAREPSIFTPSYDYWGQGTQVTVSS`
stdout: low polyreactivity

----------
testDetails: yeast display, Sf9 membrane polyspecificity reagent, FACS + sequencing; frameworks hold sequencing errors
readoutKind: polyreactivity (PSR sort gate)

Here's what some known entries look like.
HVQLVESAGGLVQAGGSLRLSCAASGSTIYGYAMGLYRQAPGKERELVAAITGSGGSTYYADSVKGRFTISRDNAKNTVYLQMNSLKPEDTAVYYCNAVRRYGLEYNYWGQGTQVTVSS | high polyreactivity
QVQLVESGGGLVQAGGSLRLSCAASGFTFSLYGMGWYRQAPGKERELVAAIRSGGSRNYADSVKGRFTISRDNAKNTVYLQMNSLKPEDTAVYYCATDIHSVHNNRDKHDYDYWGQGTQVTVSS | low polyreactivity
QVQLVESGGGLVQAGCSLRLSCAASGIIFRSYAMGWYRQAPGKERELVAAITRSGGSTYADSVKGRFTISRDNAKNTVYLQMNSLKPEDTAVYYCAADRYSGWDYRRDYWGHGTQVTVSS | low polyreactivity
QVQLVESGGGLVQAGGSLRLSCAASGRTFGTNAMGWYRLAPGKEWELVASISGGTRTNYADSVKGRFTISRDNAKNTVYLQMNSLKPEDTAVYSCAAEVGLPTWYTLPVDDYDYWGQGTQVTVSS | low polyreactivity
QVQLVESGGGLVQAGGSLRLSCAASGLTFYGYGMGWYRQAPGKERELVASITSGGNTYYADSVKGRFTISRDNAKNTVYLQMNSLKPEDTAVYYCNADDGGPGVVLPTKEYDYWGQGTQVTVSS | low polyreactivity

stdin: Look at this sequence and give its reported polyreactivity (PSR sort gate). `QVQLVESGGGLVQAGGSLRLSCAASGITFAYYVMGWYRQAPGKERELVAAINWSGGSTYYADSVKGRFTISRDNAKNTVYLQMNSLKPEDTAVYYCAADWSTWYGEKFYWGHGTQVTVSS`
stdout: high polyreactivity

stdin: Now the same for `QVQREESGGGLVQAGGSLRLSCAASGLTFTTYAMGWYRQAPGKERELVAAISRRGSRTYYADSVKGRFTISRDNAKNTVYLQMNSLKPEDTAVYYCNALTGSFKTYSFDYWGQGSQVTVSS`
stdout: high polyreactivity

stdin: Now the same for `QVQLVESGGGVVQAGGSHRLSCAASGSIFSSDAMGWYRQAPGKEREFVAAISSSGDSTYADSVKGRFTISRDNAKNTVYLQINSLKPEDTAVYYCAVGGAGSDDYWGPGTQVTVSS`
stdout: low polyreactivity

stdin: Now the same for `QVQLVESGRGLVQAGGSLRLSCAASGSIFWENAMGWYRQAPGKERELVADITIGGSTNYADSVKGRFTISRDNAKNTVYLQMNILKPEDTAVYYCAAYYYWPKYWYWGYDDWGQGTQVTVSS`
stdout: low polyreactivity

stdin: Now the same for `QVQLVESGGGLVQAGGSLRLSCAASGRIFYPYAMGWYRQPPGKERELVAAIDKGGGSTYYADSVKGRFTISRDNAKNTVYLQMNSLKPEDTAVYYCAAGWEYPYDYWGQGTQVTVSS`
stdout: low polyreactivity

stdin: Now the same for `QVQLVESGGGLVQAGGSIRLSCAASGITFAWNAMGWYRQAPGKERELVAAITKRGGSTYYADSVKGRFTISRDNAKNTVYLQMNSLKPEYTAFYYCAARGYISRYDARANAVQGNYWGQGTQVTVSS`
stdout: high polyreactivity

stdin: Now the same for `QVQLVESGGGLVQAGGSLRLSFAASGNIFSFNDMGWYRQAPGQERELVAAITSSDSTNYADSVKGRFTISRDNAKNTVYLQMNSLKPEDTAVYYCATEILTAARETVVYQFYLGYYYWGQGTQVTVSS`
stdout: low polyreactivity

stdin: Now the same for `QVQLVESGGGLVQAGGSLRLSCAASGRTFRRYVMGWDRQSPGKERQLVAAIRWTGGSTYYADSVKGRFTISRDNAKNTVYLKMNSLKPEDTEVYYCAAYIRWSGGFDYWGQGTQVTVSS`
stdout: high polyreactivity

stdin: Now the same for `QVQLVESGGGLVQAGGSLRLSCAASGFIFQRYAMGWYRQAPGKERELVAAITRTGGRTYYADSVKGRFTISRDNAKNTVYLQMNSLKPEDTAVYYCAADRTLSYEYWGQGTQVTVSS`
stdout: high polyreactivity

stdin: Now the same for `QVQLVESGGGLVQAGGSLRLSCAASGSTLQYYDMGWYRQAPGKERELVAAITWSTGTTYYADSVKGRFTISRDNAKNTVYLQMNSLKPEDTAVYYCAVDSYYRATYTNRYDYWGQGTQVTVSS`
stdout: low polyreactivity
